Provide the reported TGI of each item.
Test system: U251 CNS
Experimental Details: NCI tumour cell line growth inhibition, 48 h
One number for each entry, in µM.

# example entries with known answers
Query: What TGI appears in the records for this compound with U251 CNS? O=c1oc2ccc(I)cc2c(=O)n1-c1ccc(Cl)cc1F
Response: 24.5

Query: Enter reported TGI observed with U251 CNS for O=c1c(F)cn(Cc2ccccc2CCl)c(=O)n1Cc1ccccc1CCl
Response: 3.49

Query: Under U251 CNS: TGI value of CC(=O)OCc1c(O)c2c(c(O)c1COC(C)=O)C(=O)C=CC2=O ?
Response: 28.5

Attention now turns to another entry.
Query: # returns recorded TGI (system: U251 CNS) for O=C(O)c1ccccc1/C=N/N=C1c2ccccc2-c2ccccc21
Response: 55.6

====

Please provide measured TGI for the entries that follow.
Test system: NCI-H226 lung
Experimental Details: NCI tumour cell line growth inhibition, 48 h

Query: Suppose we examine the compound Nc1ncnc2c1ncn2CC(O)CO (stereo unspecified) ; what TGI value has been reported?
Response: > 100 µM

Query: // lookup TGI for [O-]/[N+](=C\c1ccccc1OC(=S)S)c1ccc(Cl)cc1
Response: > 100 µM

Query: Endpoint output: TGI of CC(=O)OC(Cn1cncn1)(Cn1cncn1)c1ccc(Cl)cc1Cl . Value?
Response: > 100 µM

Query: For the compound Cc1ccccc1NC(=O)C1C(=O)N(c2ccccc2C)C(=O)/C1=N\NC(N)=S (stereo unspecified) , what TGI is on record?
Response: > 100 µM

Query: What value of TGI has been reported for the following compound? CCOC(=O)C#Cc1ccccc1
Response: > 100 µM

Query: # TGI lookup, item C=CC(OCC)(OCC)OCC
Response: > 100 µM

Query: Please give the measured TGI for this compound: C/C(=N/NC(=O)C[N+](C)(C)C)C(CN(C)C)C(=O)Nc1ccccc1 (stereo unspecified)
Response: > 100 µM

Query: Data request, read-out TGI, for Cc1cn(C2CC(N(C)C)C(CO)O2)c(=O)[nH]c1=O (stereo unspecified)
Response: > 100 µM

Query: Look at this compound and give its reported TGI. O=c1[nH]c(=O)n(C2CC(O)C(CO)O2)cc1OCc1ccccc1 (stereo unspecified)
Response: > 100 µM

Query: Need TGI of N/N=C1\C(=O)N(CCc2ccccc2)C(=O)C1C(=O)NCCc1ccccc1 (stereo unspecified) , thanks.
Response: > 100 µM

For each listed entry, give its TGI.
1. C[n+]1c(-c2ccc(/C=C/C=N\NC(=O)c3ccc(C(=O)N/N=C\C=C\c4ccc(-c5cn6ccccc6[n+]5C)cc4)cc3)cc2)cn2ccccc21
2. CCC(=O)Nc1nc2c(ncn2C2OC(COC(=O)CC)C(OC(=O)CC)C2OC(=O)CC)c(=O)[nH]1 (stereo unspecified)

Response:
1: > 100 µM; 2: > 100 µM

For each listed entry, give its TGI.
1. CCOC(=O)c1nc2cc(C(F)(F)F)ccc2nc1Nc1ccc(C(=O)NC(C(=O)OCC)C(=O)OCC)cc1
2. COC1=C(C)C(=O)c2c(c(COC(N)=O)c3n2CC(OC(C)=O)C3OC(C)=O)C1=O (stereo unspecified)
3. CCOC(=O)/C(C#N)=C\C=C(/Cl)c1ccc(Cl)cc1

Response:
["34.8 µM", "1.39 µM", "83.2 µM"]

Answer for every listed entry: what is its TGI? The entries follow.
1. O=C(Nc1ccc(Cl)c(Cl)c1)NS(=O)(=O)c1cnccc1Oc1ccc(F)cc1
2. CN(C)C(=O)O[C@H]1CN[C@H](C#Cc2cc3ncnc(Nc4ccc(OCc5cccc(F)c5)c(Cl)c4)c3s2)C1
3. COC(=O)C1(C(=O)OC)CC(=O)c2cc3c(cc2-c2c(cc(OC)c(OC)c2OC)C1)OCO3
4. O=C(N/N=C/c1ccccc1O)c1ccccc1

Response:
1. > 100 µM
2. 19.2 µM
3. > 211 µM
4. 17.4 µM
